Target: T1, GST-UbcH10 (UniProt O00762 1-179)
T1 construct: UbcH10, a Ubiquitin Conjugation Enzyme (E2); PCR product cloned into pGEX-4T1; The GST tag is cleavable but the fusion GST-UbcH10 was coated on the wells; PDB 1I7K (used only for modelling) lacks the first 30 residues and has Ser114; nothing says that the ELISA construct has these limits; also called E2; recombinant GST-UbcH10; source: E. coli BL21 (DE3) RP, purified (GST-trap column, dialysed …)
T1 sequence (looked up): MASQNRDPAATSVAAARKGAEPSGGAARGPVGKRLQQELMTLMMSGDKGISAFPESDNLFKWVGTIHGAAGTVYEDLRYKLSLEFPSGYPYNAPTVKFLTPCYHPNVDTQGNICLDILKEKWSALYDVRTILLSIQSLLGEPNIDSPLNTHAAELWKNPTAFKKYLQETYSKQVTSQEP
Experiment: ELISA; wells coated overnight at 4°C with 100 µg/ml GST-UbcH10 in PBS, 1 mM TCEP; biotinylated peptides at 2.2, 11, 22, 44, 108 µM in PBS (1 mM TCEP for U1 and ScrU1); detection with streptavidin-HRP, reading at 490 nm; apparent KD
Conditions: both partners purified
*: point of attachment. Biotin = O=C1N[C@H]2[C@H](CS[C@H]2CCCCC(=O)*)N1; Ahx = NCCCCCC(=O)O
result type: Kd (µM)

binder	value comparator	reading
{Biotin-Ahx}-SDPSKTSEYQPSE-NH2 (SMILES C[C@@H](O)[C@H](NC(=O)[C@H](CCCCN)NC(=O)[C@H](CO)NC(=O)[C@@H]1CCCN1C(=O)[C@H](CC(=O)O)NC(=O)[C@H](CO)NC(=O)CCCCCNC(=O)CCCC[C@@H]1SC[C@@H]2NC(=O)N[C@@H]21)C(=O)N[C@@H](CO)C(=O)N[C@@H](CCC(=O)O)C(=O)N[C@@H](Cc1ccc(O)cc1)C(=O)N[C@@H](CCC(N)=O)C(=O)N1CCC[C@H]1C(=O)N[C@@H](CO)C(=O)N[C@@H](CCC(=O)O)C(N)=O, scrambled order of the residues of peptide L2; also called ScrL2; source: synthetic peptide (Fmoc solid phase, RP-HPLC purified)) [L2-scrambled peptide]	>	80
{Biotin-Ahx}-ELNCDVEVEGSDC-NH2 (cysteine pairing not given here, scrambled order of the residues of peptide U1; also called ScrU1; source: synthetic peptide (Fmoc solid phase, RP-HPLC purified)) [U1-scrambled peptide]	>	100
{Biotin-Ahx}-LCCNDESGEDVEV-NH2 (cysteine pairing not given here, human UbA1 (E1), UFD region, residues 1038-1050; source: synthetic peptide (Fmoc solid phase, RP-HPLC purified)) [U1 peptide (hUbA1 UFD region, 1038-1050)]	=	10
{Biotin-Ahx}-TESYSSSQDPPEK-NH2 (SMILES C[C@@H](O)[C@H](NC(=O)CCCCCNC(=O)CCCC[C@@H]1SC[C@@H]2NC(=O)N[C@@H]21)C(=O)N[C@@H](CCC(=O)O)C(=O)N[C@@H](CO)C(=O)N[C@@H](Cc1ccc(O)cc1)C(=O)N[C@@H](CO)C(=O)N[C@@H](CO)C(=O)N[C@@H](CO)C(=O)N[C@@H](CCC(N)=O)C(=O)N[C@@H](CC(=O)O)C(=O)N1CCC[C@H]1C(=O)N1CCC[C@H]1C(=O)N[C@@H](CCC(=O)O)C(=O)N[C@@H](CCCCN)C(N)=O, human UbA1 (E1), cross loop region, residues 615-627; source: synthetic peptide (Fmoc solid phase, RP-HPLC purified)) [L2 peptide (hUbA1 cross loop, 615-627)]	=	20
